Target: T1, full-length human Regnase-1 with a FLAG tag on the N-terminal side and a biotin ligase BirA recognition … (human, UniProt Q5D1E8 1-599, biotinylated at the BirA recognition sequence when required)
T1 sequence: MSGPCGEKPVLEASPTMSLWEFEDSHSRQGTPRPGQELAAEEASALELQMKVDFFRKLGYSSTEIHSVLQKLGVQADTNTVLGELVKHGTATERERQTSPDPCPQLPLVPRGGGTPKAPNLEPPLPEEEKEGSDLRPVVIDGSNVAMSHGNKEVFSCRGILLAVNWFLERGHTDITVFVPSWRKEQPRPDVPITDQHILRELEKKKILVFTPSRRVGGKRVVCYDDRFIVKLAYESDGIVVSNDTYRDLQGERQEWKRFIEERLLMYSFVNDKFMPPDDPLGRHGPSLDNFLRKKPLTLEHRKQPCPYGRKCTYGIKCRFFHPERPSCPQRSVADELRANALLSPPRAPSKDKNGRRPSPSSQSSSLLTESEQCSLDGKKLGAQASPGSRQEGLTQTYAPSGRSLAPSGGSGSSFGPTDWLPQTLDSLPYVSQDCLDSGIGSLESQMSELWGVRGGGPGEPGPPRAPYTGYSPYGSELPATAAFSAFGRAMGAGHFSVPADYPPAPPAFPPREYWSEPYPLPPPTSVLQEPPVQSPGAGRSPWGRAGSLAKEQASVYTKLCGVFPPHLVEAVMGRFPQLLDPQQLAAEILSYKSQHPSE
Assay: cell-based or functional assay
Overview of recorded 50% inhibition concentration, Regnase-1 phosphorylation by IKKβ (AlphaScreen) for various binders
Provide only the numeric value, understood in µM.

Take a look at these entries with their results.
XKFWIHHSFED (HELM PEPTIDE1{[meA].K.F.W.I.H.H.S.F.E.D.[C1CCN([*:1])C1]}$PEPTIDE1,PEPTIDE1,1:R1-11:R3$$$V2.0; SMILES CC[C@H](C)[C@@H]1NC(=O)[C@H](Cc2c[nH]c3ccccc23)NC(=O)[C@H](Cc2ccccc2)NC(=O)[C@H](CCCCN)NC(=O)[C@H](C)N(C)C(=O)C[C@@H](C(=O)N2CCCC2)NC(=O)[C@H](CCC(=O)O)NC(=O)[C@H](Cc2ccccc2)NC(=O)[C@H](CO)NC(=O)[C@H](Cc2c[nH]cn2)NC(=O)[C@H](Cc2c[nH]cn2)NC1=O) [PP20]; 24.7
XNFNSAYYRAIWD (HELM PEPTIDE1{[meA].N.F.N.S.A.Y.Y.R.A.I.W.D.[C1CCN([*:1])C1]}$PEPTIDE1,PEPTIDE1,1:R1-13:R3$$$V2.0; SMILES CC[C@H](C)[C@@H]1NC(=O)[C@H](C)NC(=O)[C@H](CCCNC(=N)N)NC(=O)[C@H](Cc2ccc(O)cc2)NC(=O)[C@H](Cc2ccc(O)cc2)NC(=O)[C@H](C)NC(=O)[C@H](CO)NC(=O)[C@H](CC(N)=O)NC(=O)[C@H](Cc2ccccc2)NC(=O)[C@H](CC(N)=O)NC(=O)[C@H](C)N(C)C(=O)C[C@@H](C(=O)N2CCCC2)NC(=O)[C@H](Cc2c[nH]c3ccccc23)NC1=O) [PP7]; 0.8
XWIWDFWNED (HELM PEPTIDE1{[meA].W.I.W.D.F.W.N.E.D.[C1CCN([*:1])C1]}$PEPTIDE1,PEPTIDE1,1:R1-10:R3$$$V2.0; SMILES CC[C@H](C)[C@@H]1NC(=O)[C@H](Cc2c[nH]c3ccccc23)NC(=O)[C@H](C)N(C)C(=O)C[C@@H](C(=O)N2CCCC2)NC(=O)[C@H](CCC(=O)O)NC(=O)[C@H](CC(N)=O)NC(=O)[C@H](Cc2c[nH]c3ccccc23)NC(=O)[C@H](Cc2ccccc2)NC(=O)[C@H](CC(=O)O)NC(=O)[C@H](Cc2c[nH]c3ccccc23)NC1=O) [PP24]; 5.3
XNSWYKIWGLD (HELM PEPTIDE1{[meA].N.S.W.Y.K.I.W.G.L.D.[C1CCN([*:1])C1]}$PEPTIDE1,PEPTIDE1,1:R1-11:R3$$$V2.0; SMILES CC[C@H](C)[C@@H]1NC(=O)[C@H](CCCCN)NC(=O)[C@H](Cc2ccc(O)cc2)NC(=O)[C@H](Cc2c[nH]c3ccccc23)NC(=O)[C@H](CO)NC(=O)[C@H](CC(N)=O)NC(=O)[C@H](C)N(C)C(=O)C[C@@H](C(=O)N2CCCC2)NC(=O)[C@H](CC(C)C)NC(=O)CNC(=O)[C@H](Cc2c[nH]c3ccccc23)NC1=O) [PP21]; 19.6
XVFYKIWYNWD (HELM PEPTIDE1{[meA].V.F.Y.K.I.W.Y.N.W.D.[C1CCN([*:1])C1]}$PEPTIDE1,PEPTIDE1,1:R1-11:R3$$$V2.0; SMILES CC[C@H](C)[C@@H]1NC(=O)[C@H](CCCCN)NC(=O)[C@H](Cc2ccc(O)cc2)NC(=O)[C@H](Cc2ccccc2)NC(=O)[C@H](C(C)C)NC(=O)[C@H](C)N(C)C(=O)C[C@@H](C(=O)N2CCCC2)NC(=O)[C@H](Cc2c[nH]c3ccccc23)NC(=O)[C@H](CC(N)=O)NC(=O)[C@H](Cc2ccc(O)cc2)NC(=O)[C@H](Cc2c[nH]c3ccccc23)NC1=O) [PP19]; 5.4
XGYANSWYNIWD (HELM PEPTIDE1{[meA].G.Y.A.N.S.W.Y.N.I.W.D.[C1CCN([*:1])C1]}$PEPTIDE1,PEPTIDE1,1:R1-12:R3$$$V2.0; SMILES CC[C@H](C)[C@@H]1NC(=O)[C@H](CC(N)=O)NC(=O)[C@H](Cc2ccc(O)cc2)NC(=O)[C@H](Cc2c[nH]c3ccccc23)NC(=O)[C@H](CO)NC(=O)[C@H](CC(N)=O)NC(=O)[C@H](C)NC(=O)[C@H](Cc2ccc(O)cc2)NC(=O)CNC(=O)[C@H](C)N(C)C(=O)C[C@@H](C(=O)N2CCCC2)NC(=O)[C@H](Cc2c[nH]c3ccccc23)NC1=O) [PP2]; 16.6

Task: Quick check: 50% inhibition concentration, Regnase-1 phosphorylation by IKKβ (AlphaScreen) of XDIWFDYWDYD (HELM PEPTIDE1{[meA].D.I.W.F.D.Y.W.D.Y.D.[C1CCN([*:1])C1]}$PEPTIDE1,PEPTIDE1,1:R1-11:R3$$$V2.0; SMILES CC[C@H](C)[C@@H]1NC(=O)[C@H](CC(=O)O)NC(=O)[C@H](C)N(C)C(=O)C[C@@H](C(=O)N2CCCC2)NC(=O)[C@H](Cc2ccc(O)cc2)NC(=O)[C@H](CC(=O)O)NC(=O)[C@H](Cc2c[nH]c3ccccc23)NC(=O)[C@H](Cc2ccc(O)cc2)NC(=O)[C@H](CC(=O)O)NC(=O)[C@H](Cc2ccccc2)NC(=O)[C@H](Cc2c[nH]c3ccccc23)NC1=O) [PP18] ?
Result: 0.4
